- Study system: biotinylated recombinant hSIRPα (extracellular portion) (human, UniProt P78324 31-373, biotin (Sulfo-NHS-LC-LC-Biotin))
- Sequence (P78324 31-373): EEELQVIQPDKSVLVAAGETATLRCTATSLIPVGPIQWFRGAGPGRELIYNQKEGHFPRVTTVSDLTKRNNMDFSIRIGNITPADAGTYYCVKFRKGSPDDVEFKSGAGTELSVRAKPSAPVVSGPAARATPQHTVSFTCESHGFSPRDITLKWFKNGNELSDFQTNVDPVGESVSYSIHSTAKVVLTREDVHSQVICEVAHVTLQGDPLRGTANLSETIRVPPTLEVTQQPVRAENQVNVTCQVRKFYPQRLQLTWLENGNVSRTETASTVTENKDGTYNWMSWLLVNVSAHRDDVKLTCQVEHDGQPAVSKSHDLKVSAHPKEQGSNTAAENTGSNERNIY
- Protocol details: BLI
Readout label: koff (s⁻¹)
Numbers only, in s⁻¹.

Below: 5 binders and their reported koff.
* hSIRPα Nb S29 (VHH) VHH: EVQLVESGGGLVQPGGSLRLSCAASGFTSETYAIGWFRQAPGKEREGVSCISNDGGSRNYADSVKGRFTISRDNAKNTSYLQMNSLKPEDTAVYYCAAGKYYYCLGYVSDGMDYWGKGTPVTVSS | 0.00462
* hSIRPα Nb S12 (VHH) VHH: QVQLVESGGGLVQPGGSLRLSCLVSGFSSSYYAIGWFRQAPGKEREGVSCITRSGDTTNYADSVKGRFTISRDDARNTVYLQMNSLKTEDTAVYSCALWAWAGSGRLRCTASEYGHWGQGTQVTVSS | 0.0127
* hSIRPα Nb S33 (VHH) VHH: EVQLVESGGGLVQPGGSLRLSCTTSGFTLDYYSVGWFRQAPGKEREGVSCITASGSSTNYANSVKGRFTISRDKVKNTVYLQMSSLKPEDTAVYYCAAEPCTVVAGILQAPTSDFGSWGQGTQVTVSS | 0.00544
* hSIRPα Nb S7 (VHH) VHH: HVQLVESGGGLVQVGDSLRLSCAPSGRTFRAYAMAWFRQAPGKEREFVAAIRWIGGTPSYKDSVKGRFTISRDNARNTFYLQMNSLEPQDTGVYYCAAEETQKGSGLGHDGRHYDYWGQGTPVTVSS | 0.0123
* hSIRPα Nb S17 (VHH) VHH: QVQLVESGGGLVQPGGSLRLSCAASGFTLDSYVIGWFRQAPGKEREGVSCISQRIGSTDYADSVKGRFTISKDNAKNTAYLQMNALKPEDTAVYYCAAGRLYYSGTYCPQGGMSYWGKGSPVTVSS | 0.00458

Consider now this further binder.
Lab note: hSIRPα Nb S41 (VHH) VHH: HVQLVESGGGLVQPGGSLRLSCAASGETLDYYAIGYVRQAPGKEREGVSCISSRGDNTNYADSVKGRFTISRDNANNTVYLQMNSLKPEDTAVYYCVAIKDSWQNYYCSVGWVEYDVWGQGTQVTVSS gave koff of 0.00383
